# targetDesc: BRG-1 (Homo sapiens)
# assayName: ATPase catalytic activity assay of BRG-1 (ADP-Glo)
# Format: biochemical
# measurementConditions: ATPase catalytic activity, ADP-Glo; read-out: BRG1 Max % Inhibition
measuredQuantity: Emax

compound	reported
C[C@@H]1CN(c2cccc(-c3csc(NC(=O)CNC(=O)c4ccc5c(c4)C(F)(C(F)F)COC5)n3)c2)C[C@H](C)O1 (stereo in doubt) [Compound 307]	> 95%
COc1cc(-c2csc(NC(=O)CNC(=O)c3ccc4c(c3)[C@](C)(C#N)COC4)n2)ccc1F	> 95%
C[C@@H]1CN(c2cccc(-c3csc(NC(=O)CNC(=O)c4cc(C(C)(C)C)ccn4)n3)c2)C[C@H](C)O1	> 80%
C[C@]1(CO)CCc2ccc(C(=O)NCC(=O)Nc3nc(-c4cccc(-c5cccnc5O)n4)cs3)cc21	> 80%
C[C@@]1(C#N)COCc2ccc(C(=O)NCC(=O)Nc3nc(-c4cccc([C@]56CCOC[C@H]5C6)n4)cs3)cc21	> 95%
C[C@@H]1CN(c2cccc(-c3csc(NC(=O)CNC(=O)c4ccc5c(c4)[C@](C)(C#N)CC5)n3)n2)C[C@H](C)O1	> 95%

* * *

# targetDesc: BRG-1 (Homo sapiens, UniProt P51532)
# Sequence (P51532 whole entry): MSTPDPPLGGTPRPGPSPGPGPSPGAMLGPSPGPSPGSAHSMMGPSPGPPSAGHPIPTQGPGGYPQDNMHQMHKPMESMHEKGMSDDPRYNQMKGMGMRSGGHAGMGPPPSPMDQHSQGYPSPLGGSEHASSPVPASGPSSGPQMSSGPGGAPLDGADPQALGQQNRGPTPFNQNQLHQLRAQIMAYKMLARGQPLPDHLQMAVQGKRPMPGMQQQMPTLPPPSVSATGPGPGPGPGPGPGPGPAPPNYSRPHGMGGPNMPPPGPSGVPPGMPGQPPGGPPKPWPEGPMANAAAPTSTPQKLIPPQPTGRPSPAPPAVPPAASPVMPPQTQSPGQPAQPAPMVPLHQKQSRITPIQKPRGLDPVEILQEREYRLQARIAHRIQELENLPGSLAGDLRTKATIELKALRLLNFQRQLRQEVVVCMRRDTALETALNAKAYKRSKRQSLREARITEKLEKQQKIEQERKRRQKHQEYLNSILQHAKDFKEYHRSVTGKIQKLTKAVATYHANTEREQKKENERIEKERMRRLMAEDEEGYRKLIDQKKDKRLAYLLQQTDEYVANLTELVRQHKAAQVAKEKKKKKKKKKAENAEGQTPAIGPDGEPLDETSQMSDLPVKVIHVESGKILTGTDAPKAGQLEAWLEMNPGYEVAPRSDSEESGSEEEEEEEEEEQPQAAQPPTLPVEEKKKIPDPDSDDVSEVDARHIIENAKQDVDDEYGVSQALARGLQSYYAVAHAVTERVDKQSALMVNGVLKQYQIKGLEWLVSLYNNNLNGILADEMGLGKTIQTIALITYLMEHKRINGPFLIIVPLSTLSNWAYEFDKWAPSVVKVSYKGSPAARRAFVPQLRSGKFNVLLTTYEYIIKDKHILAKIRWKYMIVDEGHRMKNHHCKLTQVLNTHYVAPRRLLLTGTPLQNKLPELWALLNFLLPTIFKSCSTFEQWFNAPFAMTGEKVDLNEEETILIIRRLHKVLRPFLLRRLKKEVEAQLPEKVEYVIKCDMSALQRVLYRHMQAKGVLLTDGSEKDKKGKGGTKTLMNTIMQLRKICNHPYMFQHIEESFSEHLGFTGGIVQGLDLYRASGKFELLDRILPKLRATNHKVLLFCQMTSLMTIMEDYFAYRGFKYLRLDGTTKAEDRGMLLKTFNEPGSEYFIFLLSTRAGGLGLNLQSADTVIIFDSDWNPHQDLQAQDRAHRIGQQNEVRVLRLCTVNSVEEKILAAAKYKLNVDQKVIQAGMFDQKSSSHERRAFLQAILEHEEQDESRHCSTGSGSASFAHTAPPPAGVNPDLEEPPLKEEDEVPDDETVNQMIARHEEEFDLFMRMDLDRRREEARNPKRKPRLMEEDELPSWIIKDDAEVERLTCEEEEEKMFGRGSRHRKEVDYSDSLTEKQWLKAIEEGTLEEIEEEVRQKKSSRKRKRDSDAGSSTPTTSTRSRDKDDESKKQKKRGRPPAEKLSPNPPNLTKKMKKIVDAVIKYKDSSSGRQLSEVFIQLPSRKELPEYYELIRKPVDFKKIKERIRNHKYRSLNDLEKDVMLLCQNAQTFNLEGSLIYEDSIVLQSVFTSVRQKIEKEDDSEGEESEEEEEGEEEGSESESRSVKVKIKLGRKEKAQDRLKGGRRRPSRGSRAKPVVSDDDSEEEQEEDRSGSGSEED
# assayName: ATPase catalytic activity assay of BRG-1 (ADP-Glo)
# Assay type: biochemical
# measurementConditions: ATPase catalytic activity, ADP-Glo; read-out: BRG1 IC50 (μM)*

compound	IC50
C[C@@H]1CN(c2cccc(-c3csc(NC(=O)CNC(=O)c4cccc(C5(C)COC5)c4)n3)n2)C[C@H](C)O1	0.1 to 1 µM
C[C@@H]1CN(c2cccc(-c3csc(NC(=O)CNC(=O)c4ccc5c(c4)[C@](C)(C#N)CN5C)n3)c2)C[C@H](C)O1	< 0.1 µM
Cc1nccc(-c2cccc(-c3csc(NC(=O)CNC(=O)c4cccc(C(C)(C)CN)c4)n3)c2)n1 [Compound 100]	< 0.1 µM
CC(C)S(=O)(=O)c1cccc(C(=O)NCC(=O)Nc2nc(-c3cc(C#N)cc(-c4ccc(CN)cc4)c3)cs2)c1	> 5 µM
Cn1ccc2ccc(-c3csc(NC(=O)CNC(=O)c4ccc5c(c4)[C@@](C)(CO)CC5)n3)cc2c1=O	1 to 5 µM
C[C@@H]1CN(c2cccc(-c3csc(NC(=O)CNC(=O)c4cccc([C@]5(C(F)F)CCOC5)c4)n3)c2)C[C@H](C)O1	0.1 to 1 µM
C[C@@H]1CN(c2cccc(-c3csc(NC(=O)CNC(=O)c4ccc5c(c4)CCCO5)n3)n2)C[C@H](C)O1	> 5 µM
C[C@@H]1CN(c2cccc(-c3csc(NC(=O)CNC(=O)c4ccc5c(c4)[C@](F)(C(F)F)CCO5)n3)c2)C[C@H](C)O1	< 0.1 µM
COc1cccc(-c2csc(NC(=O)CNC(=O)c3ccc4c(c3)[C@](C)(F)COC4)n2)c1	0.1 to 1 µM
COc1cccc(-c2csc(NC(=O)CNC(=O)c3ccc4c(c3)[C@](C)(F)CCOC4)n2)c1	0.1 to 1 µM
COc1cccc(-c2csc(NC(=O)CNC(=O)c3ccc4c(c3)[C@](C)(C#N)COC4)n2)n1	0.1 to 1 µM
C[C@@H]1CN(c2cccc(-c3csc(NC(=O)CNC(=O)c4cccc(C5(CF)COC5)c4)n3)c2)C[C@H](C)O1	1 to 5 µM
C[C@@H]1CN(c2cccc(-c3csc(NC(=O)CNC(=O)c4ccc5c(c4)[C@@](C)(CO)CO5)n3)n2)C[C@H](C)O1 (single isomer, unassigned)	1 to 5 µM
CC1CCN1c1cccc(-c2csc(NC(=O)CNC(=O)c3ccc4c(c3)[C@](C)(C#N)COC4)n2)c1 (some centres unmarked)	< 0.1 µM
